We begin with a simple list: items and their reported abundance fitness.
B1: Chromodomain-helicase-DNA-binding protein 4, residues 444 to 496; numbered along this chain, Q14839 (parent)
chain: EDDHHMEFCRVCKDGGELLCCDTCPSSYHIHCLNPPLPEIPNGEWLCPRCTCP

variants of: B1; assay: abundance fitness (aPCA) (normalised: wild type 0, dead -1); higher = more abundant; growth selection in yeast, the domain comes from the species named; details: Homo sapiens
Kindly provide the number alone.

Consider the worked cases shown below.
MUTATION DESCRIPTOR: C21K
abundance fitness: -0.795
//
MUTATION DESCRIPTOR: C50I
abundance fitness: -1.08
//
MUTATION DESCRIPTOR: C9D
abundance fitness: -0.601
//
MUTATION DESCRIPTOR: L18Q
abundance fitness: -0.397
//
MUTATION DESCRIPTOR: C32N
abundance fitness: -1.15
//
MUTATION DESCRIPTOR: D3W
abundance fitness: 0.201
//
MUTATION DESCRIPTOR: F8A
abundance fitness: -0.103
//
MUTATION DESCRIPTOR: D3R
abundance fitness: 0.06

q: Could you tell me which abundance fitness is on file for H29T ?
a: -0.921

q: Try H31K next.
a: 0.035

q: Try C24T next.
a: -0.862

q: Try C9M next.
a: -0.98

q: Try S26V next.
a: -0.132

q: Try C9E next.
a: -0.483

Measured values drawn from the Human Domainome abundance scans (Beltran et al. 2025) for this set.
